- Study System: α7^Q79G,Y115F-5HT3 (Homo sapiens, UniProt P36544, M226I/Q79G/T225I/Y115F)
- Assay Remarks: Agonist potency (EC50), HEK cells expressing chimeric channel
- Assay Context: Table 4
Reported Property: EC50 (µM)
// return numeric value only (unit: µM, not printed)

Exercise: Which value of EC50 has been reported for O=C(NC1CN2CCC1CC2)c1ccc(Cl)cc1 (stereo not shown) [PNU-282987] in the records?
Key: 0.35

====

- Study System: α7^Q79G,Q139G-5HT3 (Homo sapiens, UniProt P36544, M226I/Q139G/Q79G/T225I)
- Sequence (P36544 with tags, fused parts or gaps Q79G/Q139G/T225I/M226I): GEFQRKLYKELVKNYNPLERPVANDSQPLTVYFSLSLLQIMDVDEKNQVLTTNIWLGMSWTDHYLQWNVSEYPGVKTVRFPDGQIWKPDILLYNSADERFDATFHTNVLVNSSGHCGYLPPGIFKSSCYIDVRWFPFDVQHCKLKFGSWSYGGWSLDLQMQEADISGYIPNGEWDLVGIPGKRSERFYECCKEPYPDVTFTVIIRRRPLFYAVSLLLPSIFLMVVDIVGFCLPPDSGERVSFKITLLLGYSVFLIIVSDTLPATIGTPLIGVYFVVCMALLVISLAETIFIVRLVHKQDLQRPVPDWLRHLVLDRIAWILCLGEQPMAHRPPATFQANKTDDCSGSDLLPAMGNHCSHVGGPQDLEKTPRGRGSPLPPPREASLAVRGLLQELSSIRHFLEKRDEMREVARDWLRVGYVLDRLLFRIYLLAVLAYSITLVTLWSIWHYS
- Assay Remarks: Agonist potency (EC50), HEK cells expressing chimeric channel
- Assay Context: Table 4
Reported Property: EC50 (µM)
// return numeric value only (unit: µM, not printed)

Exercise: Which value of EC50 has been reported for O=C(NC1CN2CCC1CC2)c1ccc(Cl)cc1 (stereo not shown) in the records?
Key: 0.16

====

- System: α7GlyR chimeric channels with G175K and A298G mutations
- Assay type: cell-based, human
- Assay Context: read-out: Agonist potency; α7GlyR Q79G A298G Y115F K395 K396A
Some compounds, each annotated with its measured EC50.
// return numeric value only (unit: µM, not printed)

Compound	Unit Name	Measured Number
CN1CCCC1c1cccnc1 (stereo not drawn) [Nicotine]	µM	16.5

Moving on to the next compound.
Exercise: Which value of EC50 has been reported for O=C(NC1CN2CCC1CC2)c1ccc(Cl)cc1 (stereo not drawn) [PNU-282987] in the records?
Key: 0.11

====

Some compounds, each annotated with its measured EC50.
- Study System: α7^Q79S,L131G,Q139L-GlyR (Homo sapiens, UniProt P36544, L131G/Q139L/Q79S)
- Assay Remarks: cell-based
// return numeric value only (unit: µM, not printed)

Compound	EC50 (µM)
O=c1cccc2n1C[C@@H]1CNC[C@H]2C1	10

Moving on to the next compound.
Exercise: Which value of EC50 has been reported for Clc1ccc(C2CC3CCC2N3)cn1 (centres unmarked) [Epibatidine] in the records?
Key: 0.012

====

- Study System: α7-5HT3 (Homo sapiens, UniProt P36544, M226I/T225I)
- Construct: expressed in transfected cells; host or cells: HEK cells
- Sequence (P36544 with tags, fused parts or gaps T225I/M226I): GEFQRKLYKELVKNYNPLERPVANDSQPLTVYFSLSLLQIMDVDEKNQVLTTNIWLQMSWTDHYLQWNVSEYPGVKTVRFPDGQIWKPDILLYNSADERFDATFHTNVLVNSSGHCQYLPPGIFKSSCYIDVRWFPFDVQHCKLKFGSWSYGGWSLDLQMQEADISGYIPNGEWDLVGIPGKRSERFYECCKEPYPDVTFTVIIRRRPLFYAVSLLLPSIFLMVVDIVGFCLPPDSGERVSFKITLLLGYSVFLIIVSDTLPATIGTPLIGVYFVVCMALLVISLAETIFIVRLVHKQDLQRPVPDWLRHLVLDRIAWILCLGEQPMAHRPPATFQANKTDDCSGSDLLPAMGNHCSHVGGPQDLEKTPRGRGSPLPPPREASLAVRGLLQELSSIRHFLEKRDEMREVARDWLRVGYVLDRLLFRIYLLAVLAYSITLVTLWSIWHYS
- Assay Remarks: Agonist potency (EC50), HEK cells expressing chimeric channel
- Assay type: cell-based, human α7 nAChR LBD, murine 5HT3 IPD
- Assay Context: read-out: Mean EC50, α7-5HT3; HEK cells; Table 1
Reported Property: EC50
Please state the number and follow it with the unit.

Exercise: Which value of EC50 has been reported for Clc1ccc(C2CC3CCC2N3)cn1 (stereo not shown) [Epibatidine] in the records?
Key: 53 nM

====

- Study System: α7^Q79G-GlyR^A298G (Homo sapiens, UniProt P36544, A298G/Q79G)
- Construct: expressed in transfected cells; host or cells: HEK cells
- Sequence (P36544 with tags, fused parts or gaps Q79G): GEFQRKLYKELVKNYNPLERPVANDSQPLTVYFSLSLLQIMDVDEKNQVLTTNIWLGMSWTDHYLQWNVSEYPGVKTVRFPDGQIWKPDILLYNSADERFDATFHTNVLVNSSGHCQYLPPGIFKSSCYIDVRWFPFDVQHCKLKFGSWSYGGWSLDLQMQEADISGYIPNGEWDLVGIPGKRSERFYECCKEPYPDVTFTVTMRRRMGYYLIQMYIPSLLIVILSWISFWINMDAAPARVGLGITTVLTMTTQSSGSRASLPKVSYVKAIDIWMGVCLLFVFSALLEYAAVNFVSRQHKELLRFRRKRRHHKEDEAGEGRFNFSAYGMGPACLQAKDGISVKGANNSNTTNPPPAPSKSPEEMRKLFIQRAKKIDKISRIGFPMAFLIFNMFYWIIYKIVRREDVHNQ
- Assay Remarks: Agonist potency (EC50), HEK cells expressing chimeric channel
- Format: cell-based
- Assay Context: HEK cells; Table 2; read-out: Mean EC50 and SEM in parentheses, α7^Q79G-GlyR^A298G
Reported Property: EC50 (nM)
// return numeric value only (unit: nM, not printed)

Exercise: Which value of EC50 has been reported for Cn1cc(C(=O)C(=O)NC2CN3CCC2CC3)c2ccccc21 (stereo not shown) [RS56812] in the records?
Key: 610

====

- Study System: α7^Q79A-GlyR (Homo sapiens, UniProt P36544, Q79A)
- Construct: expressed in transfected cells; host or cells: HEK cells
- Sequence (P36544 with tags, fused parts or gaps Q79A): as the sequence (P36544 with tags, fused parts or gaps Q79G) above, with G57A, G276A counted along it
- Assay Remarks: Agonist potency (EC50), HEK cells expressing chimeric channel
- Assay type: cell-based
Reported Property: pEC50
In textbook form, pEC50 equals minus log to base ten of the concentration in mol/L.

Compound	Study System	Measured Number
Clc1ccc(C2CC3CCC2N3)cn1 (centres unmarked) [Epibatidine]	α7^Q79A-GlyR (Homo sapiens, UniProt P36544, Q79A)	7.42

Moving on to the next compound.
Exercise: Which value of pEC50 has been reported for O=C(NC1CN2CCC1CC2)c1ccc(Cl)cc1 (centres unmarked) [PNU-282987] in the records?
Key: 7.66

====

Some compounds, each annotated with its measured EC50.
- Study System: α7-GlyR^A298G (Homo sapiens, UniProt P36544, A298G)
- Construct: expressed in transfected cells; host or cells: HEK cells
- Sequence (P36544 with tags, fused parts or gaps, stated change not applied): as the sequence (P36544 with tags, fused parts or gaps Q79G) above, with G57Q counted along it
- Assay Remarks: Agonist potency (EC50), HEK cells expressing chimeric channel
- Type: cell-based
// return numeric value only (unit: nM, not printed)

Compound	Study System	Reported Property	Measured Number
O=c1cccc2n1C[C@@H]1CNC[C@H]2C1	α7-GlyR^A298G (Homo sapiens, UniProt P36544, A298G)	EC50	2100

Exercise: Which value of EC50 has been reported for O=C(NC1CN2CCC1CC2)c1ccc(Cl)cc1 (centres unmarked) in the records?
Key: 35

====

- Study System: α7-GlyR^A298G (Homo sapiens, UniProt P36544, A298G)
- Construct: expressed in transfected cells; host or cells: HEK cells
- Assay Remarks: Agonist potency (EC50), HEK cells expressing chimeric channel
- Assay type: cell-based
- Assay Context: HEK cells; Table 2; read-out: Mean EC50 and SEM in parentheses, α7-GlyR^A298G
Reported Property: EC50 (µM)
// return numeric value only (unit: µM, not printed)

Exercise: Which value of EC50 has been reported for Cn1cc(C(=O)C(=O)NC2CN3CCC2CC3)c2ccccc21 (stereo not shown) in the records?
Key: 2.3

====

- Study System: α7^Y115F,G175K-GlyR (Homo sapiens, UniProt P36544, G175K/Y115F)
- Construct: expressed in transfected cells
- Sequence (P36544 with tags, fused parts or gaps Y115F/G175K): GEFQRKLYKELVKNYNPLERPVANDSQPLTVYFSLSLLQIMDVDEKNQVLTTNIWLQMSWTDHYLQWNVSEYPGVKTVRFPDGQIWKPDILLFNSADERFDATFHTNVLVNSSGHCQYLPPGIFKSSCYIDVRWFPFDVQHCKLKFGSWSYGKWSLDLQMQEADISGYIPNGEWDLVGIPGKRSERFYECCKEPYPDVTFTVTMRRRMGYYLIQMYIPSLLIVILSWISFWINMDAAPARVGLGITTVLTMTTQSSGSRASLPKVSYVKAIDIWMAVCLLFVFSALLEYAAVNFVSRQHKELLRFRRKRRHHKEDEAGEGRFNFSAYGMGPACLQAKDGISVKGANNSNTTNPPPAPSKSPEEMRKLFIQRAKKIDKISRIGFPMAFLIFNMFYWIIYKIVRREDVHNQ
- Assay Remarks: Agonist potency at chimeric channel
- Assay type: cell-based
Reported Property: pEC50
In textbook form, pEC50 equals minus log to base ten of the concentration in mol/L.

Sample answers from the record:
Molecule	pEC50
O=c1cccc2n1C[C@@H]1CNC[C@H]2C1	5.15
Clc1ccc(C2CC3CCC2N3)cn1 (stereo not drawn) [Epibatidine]	7.44

Moving on to the next molecule.
Exercise: Find the measured pEC50: item O=C(NC1CN2CCC1CC2)c1ccc(Cl)cc1 (stereo not drawn) , target or system α7^Y115F,G175K-GlyR (Homo sapiens, UniProt P36544, G175K/Y115F).
Key: 7.00

====

Some compounds, each annotated with its measured EC50.
- Study System: α7-GlyR (Homo sapiens, UniProt P36544)
- Construct: expressed in transfected cells; host or cells: HEK cells
- Sequence (P36544 with tags, fused parts or gaps): as the sequence (P36544 with tags, fused parts or gaps Q79G) above, with G57Q, G276A counted along it
- Assay Remarks: Agonist potency (EC50), HEK cells expressing chimeric channel
- Assay type: cell-based
- Assay Context: read-out: Agonist potency
// return numeric value only (unit: µM, not printed)

Compound	Study System	Measured Number
O=c1cccc2n1C[C@@H]1CNC[C@H]2C1	α7-GlyR (Homo sapiens, UniProt P36544)	6.4

Moving on to the next compound.
Exercise: Which value of EC50 has been reported for O=C(NC1CN2CCC1CC2)c1ccc(Cl)cc1 (centres unmarked) in the records?
Key: 0.13

====

- Study System: α7^Q79A-GlyR (Homo sapiens, UniProt P36544, Q79A)
- Construct: expressed in transfected cells; host or cells: HEK cells
- Assay Remarks: Agonist potency (EC50), HEK cells expressing chimeric channel
- Format: cell-based
- Assay Context: HEK cells; Table 2; read-out: Mean EC50 and SEM in parentheses, α7^Q79A-GlyR
Reported Property: EC50 (µM)
// return numeric value only (unit: µM, not printed)

Exercise: Which value of EC50 has been reported for Cn1cc(C(=O)C(=O)NC2CN3CCC2CC3)c2ccccc21 (stereo not shown) [RS56812] in the records?
Key: 3.5

====

- Study System: α7-GlyR (Homo sapiens, UniProt P36544)
- Construct: expressed in transfected cells; host or cells: HEK cells
- Assay Remarks: Agonist potency (EC50), HEK cells expressing chimeric channel
- Assay type: cell-based
- Assay Context: HEK cells; Table 2; read-out: Mean EC50 and SEM in parentheses, α7 GlyR
Reported Property: pEC50
In textbook form, pEC50 equals minus log to base ten of the concentration in mol/L.

Exercise: Find the measured pEC50: item Cn1cc(C(=O)C(=O)NC2CN3CCC2CC3)c2ccccc21 (stereo not shown) , target or system α7-GlyR (Homo sapiens, UniProt P36544).
Key: 5.19

====

- Study System: α7^Q79S-5HT3 (Homo sapiens, UniProt P36544, M226I/Q79S/T225I)
- Construct: expressed in transfected cells; host or cells: HEK cells
- Sequence (P36544 with tags, fused parts or gaps Q79S/T225I/M226I): as the sequence (P36544 with tags, fused parts or gaps T225I/M226I) above, with Q57S counted along it
- Assay Remarks: Agonist potency (EC50), HEK cells expressing chimeric channel
- Format: cell-based, human α7 nAChR LBD, murine 5HT3 IPD
- Assay Context: read-out: Mean EC50, α7^Q79S-5HT3; HEK cells; Table 1
Reported Property: pEC50
In textbook form, pEC50 equals minus log to base ten of the concentration in mol/L.

Exercise: Which value of pEC50 has been reported for Clc1ccc(C2CC3CCC2N3)cn1 (stereo not shown) [Epibatidine] in the records?
Key: 7.36
